tested_system: Dipeptidyl peptidase 4 (Rattus norvegicus) (UniProt P14740)
Sequence (P14740 whole entry, looked up): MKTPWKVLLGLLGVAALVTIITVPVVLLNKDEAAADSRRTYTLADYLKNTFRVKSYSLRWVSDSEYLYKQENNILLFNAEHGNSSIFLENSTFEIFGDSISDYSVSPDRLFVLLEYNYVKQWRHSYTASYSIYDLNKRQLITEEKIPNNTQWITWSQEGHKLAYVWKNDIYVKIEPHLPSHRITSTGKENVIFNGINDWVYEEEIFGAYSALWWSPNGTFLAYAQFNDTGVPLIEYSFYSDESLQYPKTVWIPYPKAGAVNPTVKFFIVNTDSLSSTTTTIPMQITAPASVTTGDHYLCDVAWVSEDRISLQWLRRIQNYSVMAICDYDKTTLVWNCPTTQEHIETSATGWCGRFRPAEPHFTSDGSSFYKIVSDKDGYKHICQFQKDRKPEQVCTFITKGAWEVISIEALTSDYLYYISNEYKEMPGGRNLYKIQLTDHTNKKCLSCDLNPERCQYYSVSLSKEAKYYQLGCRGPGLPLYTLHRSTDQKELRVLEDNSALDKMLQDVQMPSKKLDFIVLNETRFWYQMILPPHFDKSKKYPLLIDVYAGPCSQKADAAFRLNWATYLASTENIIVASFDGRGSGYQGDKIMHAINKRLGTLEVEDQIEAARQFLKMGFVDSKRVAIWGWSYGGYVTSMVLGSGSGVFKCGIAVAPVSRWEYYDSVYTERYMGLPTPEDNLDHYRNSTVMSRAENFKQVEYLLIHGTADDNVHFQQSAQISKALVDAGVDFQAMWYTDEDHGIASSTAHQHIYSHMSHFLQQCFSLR
procedure_text: Ex vivo inhibition of DPP4 in Sprague-Dawley rat plasma at 1 mg/kg, po after 6 hrs
Assay type: organism-based
Parameters: dose 1 mg/kg
Think of 70% as a floor: if inhibition stands on it or above, it is Criterion met; beneath it, Criterion not met.

Exam item: In plain terms: is recorded inhibition at least 70% for C=CC[C@@H]1CN[C@H](C(=O)N2CCC[C@H]2C#N)C1 ?
Marked response: Criterion not met

Exam item: What do we get for CCNC(=O)[C@@H]1CN[C@H](C(=O)N2CCC[C@H]2C#N)C1 ?
Marked response: Criterion not met

Exam item: What do we get for N#C[C@@H]1CCCN1C(=O)[C@@H]1C[C@H](C(=O)N2CCOCC2)CN1 ?
Marked response: Criterion met

Exam item: What do we get for N#C[C@@H]1CCCN1C(=O)[C@@H]1C[C@H](C(N)=O)CN1 ?
Marked response: Criterion not met

Exam item: What do we get for CN(C)C(=O)[C@@H]1CN[C@H](C(=O)N2CCC[C@H]2C#N)C1 ?
Marked response: Criterion met

Exam item: What do we get for C[C@@H]1N[C@H](C(=O)N2CCC[C@H]2C#N)C[C@@H]1C(=O)N1CCCC1 ?
Marked response: Criterion met

Exam item: What do we get for C[C@@H]1N[C@H](C(=O)N2CCC[C@H]2C#N)C[C@@H]1C(=O)N1CCCCC1 ?
Marked response: Criterion met

Exam item: What do we get for CCN(C)C(=O)[C@H]1C[C@@H](C(=O)N2CCC[C@H]2C#N)N[C@H]1C ?
Marked response: Criterion met

Exam item: What do we get for C[C@@H]1N[C@H](C(=O)N2CCC[C@H]2C#N)C[C@@H]1C(=O)N1CCSCC1 ?
Marked response: Criterion met

Exam item: What do we get for N#C[C@@H]1CCCN1C(=O)[C@@H]1C[C@H](C(=O)N2CCCC2)CN1 ?
Marked response: Criterion met

Exam item: What do we get for CNC(=O)[C@@H]1CN[C@H](C(=O)N2CCC[C@H]2C#N)C1 ?
Marked response: Criterion met

Exam item: What do we get for N#C[C@@H]1CCCN1C(=O)[C@@H]1C[C@H](CO)CN1 ?
Marked response: Criterion not met

Exam item: What do we get for N#C[C@@H]1CCCN1C(=O)[C@@H]1C[C@H](C(=O)N2CCCCC2)CN1 ?
Marked response: Criterion met

Exam item: What do we get for C[C@@H]1N[C@H](C(=O)N2CCC[C@H]2C#N)C[C@@H]1C(=O)N(C)C ?
Marked response: Criterion met

Exam item: What do we get for CN(C)C(=O)CC[C@@H]1CN[C@H](C(=O)N2CCC[C@H]2C#N)C1 ?
Marked response: Criterion not met

Exam item: What do we get for CCCNC(=O)[C@@H]1CN[C@H](C(=O)N2CCC[C@H]2C#N)C1 ?
Marked response: Criterion not met

Exam item: What do we get for CN(C)C(=O)C[C@@H]1CN[C@H](C(=O)N2CCC[C@H]2C#N)C1 ?
Marked response: Criterion not met

Exam item: What do we get for CCC[C@@H]1CN[C@H](C(=O)N2CCC[C@H]2C#N)C1 ?
Marked response: Criterion not met

Exam item: What do we get for N#C[C@@H]1CCCN1C(=O)[C@@H]1C[C@H](CCO)CN1 ?
Marked response: Criterion not met

Exam item: What do we get for C[C@@H]1N[C@H](C(=O)N2CCC[C@H]2C#N)C[C@@H]1C(=O)N1CCC1 ?
Marked response: Criterion met

Exam item: What do we get for N#C[C@@H]1CCCN1C(=O)[C@@H]1CCCN1 ?
Marked response: Criterion not met

Exam item: What do we get for N#C[C@@H]1CCCN1C(=O)[C@@H]1C[C@H](C(=O)N2CCCCCCC2)CN1 ?
Marked response: Criterion not met

Exam item: What do we get for C[C@@H]1N[C@H](C(=O)N2CCC[C@H]2C#N)C[C@@H]1C(=O)N1Cc2ccccc2C1 ?
Marked response: Criterion met

Exam item: What do we get for CCN(CC)C(=O)[C@@H]1CN[C@H](C(=O)N2CCC[C@H]2C#N)C1 ?
Marked response: Criterion not met

Exam item: What do we get for N#C[C@@H]1CCCN1C(=O)[C@@H]1C[C@H](C(=O)N2CCC2)CN1 ?
Marked response: Criterion met

Exam item: What do we get for N#C[C@@H]1CCCN1C(=O)[C@@H]1C[C@H](CC(=O)O)CN1 ?
Marked response: Criterion not met

Exam item: What do we get for C[C@@H]1N[C@H](C(=O)N2CCC[C@H]2C#N)C[C@@H]1C(=O)N1CCOCC1 ?
Marked response: Criterion met
